# Target system: CAMK1G (1-320) (Homo sapiens)
# Construct: made in house; host or cells: E. coli BL21 (DE3) pLysS
# Sequence (Q96NX5 1-320): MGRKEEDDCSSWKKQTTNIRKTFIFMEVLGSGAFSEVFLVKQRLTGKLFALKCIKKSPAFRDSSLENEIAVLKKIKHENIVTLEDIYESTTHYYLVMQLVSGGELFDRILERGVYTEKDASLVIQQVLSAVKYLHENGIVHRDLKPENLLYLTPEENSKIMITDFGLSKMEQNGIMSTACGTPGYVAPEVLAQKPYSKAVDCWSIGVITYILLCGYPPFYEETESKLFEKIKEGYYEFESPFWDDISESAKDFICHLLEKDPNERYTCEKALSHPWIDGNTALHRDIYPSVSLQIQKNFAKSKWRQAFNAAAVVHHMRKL
# Test: STD-NMR fragment screening, CAMK1G
# Assay type: binding
# Condition info: 1 = hit, 0 = no hit
Assay metric: CAMK1G (STD-NMR hit flag)

| Molecule | Assay metric | Measured |
| --- | --- | --- |
| Clc1cnc2ccccn12 | CAMK1G (STD-NMR hit flag) | 1 |
| COc1cc(Cl)cnc1OC | CAMK1G (STD-NMR hit flag) | 1 |
| CS(=O)(=O)c1ccc(Cl)c(S(C)(=O)=O)c1 | CAMK1G (STD-NMR hit flag) | 0 |
| CC(C(=O)O)n1cc(Br)cn1 (stereo not drawn) | CAMK1G (STD-NMR hit flag) | 0 |
| Cn1ccc(Br)n1 | CAMK1G (STD-NMR hit flag) | 0 |
| O=c1[nH]cc(Cl)cc1[N+](=O)[O-] | CAMK1G (STD-NMR hit flag) | 1 |
